This collection of values is drawn from the supplement of paper PMC10065799.

System: c-Src
procedure.summary: phosphorylation enrichment, bacterial display (enrichment ratio); higher = better substrate or ligand; peptides without Tyr show the background
Think of 0.5 as a floor: if phosphorylation enrichment stands on it or above, it is T; beneath it, F.

Solved cases below.
RSLLQYGGSAN [ANK1_Y624] = F
HNLPIYEGYAL [ACTA1_Y168_V165L] = T
IGLHAYGDQYR [IDH1_Y135_R132L] = F
GSTLSYFGLAA [P2RX7_Y343] = T
TGEDWYVLVRV [SF3B3_Y904_G908R] = F
DFDNLYYWDQD [ERBB2_Y1221_A1216D] = T
KNNDGYIDFAE [MCFD2_Y135_YF] = F
RLRKFYLGKFL [KLB_Y906_YF] = T

Please examine the following record next.
Dear colleague, could you confirm whether CEDGTYSPEIS [PTDSS1_Y424] has phosphorylation enrichment at or above 0.5?
T

###

system: FGFR1 (UniProt P11362)
Sequence (P11362 whole entry, looked up): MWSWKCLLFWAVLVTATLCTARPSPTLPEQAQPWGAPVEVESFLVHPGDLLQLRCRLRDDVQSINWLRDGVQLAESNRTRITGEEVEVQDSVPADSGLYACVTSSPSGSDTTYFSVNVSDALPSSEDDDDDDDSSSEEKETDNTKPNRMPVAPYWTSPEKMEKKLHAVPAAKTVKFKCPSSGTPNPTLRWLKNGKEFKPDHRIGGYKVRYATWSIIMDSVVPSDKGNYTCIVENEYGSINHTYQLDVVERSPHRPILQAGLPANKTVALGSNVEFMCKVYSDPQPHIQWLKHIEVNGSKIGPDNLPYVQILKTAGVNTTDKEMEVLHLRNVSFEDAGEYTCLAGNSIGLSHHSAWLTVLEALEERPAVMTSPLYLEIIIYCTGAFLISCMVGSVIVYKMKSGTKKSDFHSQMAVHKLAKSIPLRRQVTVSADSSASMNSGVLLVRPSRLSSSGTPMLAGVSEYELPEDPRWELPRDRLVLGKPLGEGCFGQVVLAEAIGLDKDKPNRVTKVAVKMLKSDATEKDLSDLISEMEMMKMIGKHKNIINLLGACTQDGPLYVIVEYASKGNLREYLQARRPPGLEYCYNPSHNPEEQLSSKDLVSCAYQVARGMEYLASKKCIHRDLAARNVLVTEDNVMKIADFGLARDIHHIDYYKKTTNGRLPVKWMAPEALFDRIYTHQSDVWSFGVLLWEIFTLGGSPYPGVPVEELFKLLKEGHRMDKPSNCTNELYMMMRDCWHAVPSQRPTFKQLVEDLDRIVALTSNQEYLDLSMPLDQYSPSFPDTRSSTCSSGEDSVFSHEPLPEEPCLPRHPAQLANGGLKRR
procedure.summary: phosphorylation enrichment, bacterial display (enrichment ratio); higher = better substrate or ligand; peptides without Tyr show the background
result.type: phosphorylation enrichment
// response body must contain only the number

GKAFIYASHIV [ZNF573_Y229] = 0.427
ITKNPYDPPGR = 0.427
SKDQIYPMKLK [RANBP17_Y823] = 0.386
KGIQLYDTPFE [SHB_Y297_YF] = 0.511

Provide phosphorylation enrichment value for the following sequence: VEDDMYRKTCT [XPA_Y257_L252V]
0.559

Provide phosphorylation enrichment value for the following sequence: HVKHNYECLVY [XRCC5_Y416_I412V]
0.75

Provide phosphorylation enrichment value for the following sequence: RGKDNYETSQL [SPP1_Y225_S224N]
0.565

Provide phosphorylation enrichment value for the following sequence: TTSQLYDAVPI [PDPK1_Y9]
0.611

Provide phosphorylation enrichment value for the following sequence: ANFTEYVATSW [CDKL5_Y171_R175S_YF]
1.03

Provide phosphorylation enrichment value for the following sequence: RFMVGYEMLAQ [GALT_Y339_K334R]
0.875

Provide phosphorylation enrichment value for the following sequence: SHPSSYTTHPQ [NIPBL_Y195]
0.459

Provide phosphorylation enrichment value for the following sequence: SGRSGYCLGTR [SCO1_Y60_P58S]
0.518

Provide phosphorylation enrichment value for the following sequence: IKGIRYLHHQG [GUCY2D_Y656_R660Q]
0.465

Provide phosphorylation enrichment value for the following sequence: IPGVEYLVSII [TNC_Y1775]
0.552

###

system: Fyn (UniProt P06241)
Sequence (P06241 whole entry, looked up): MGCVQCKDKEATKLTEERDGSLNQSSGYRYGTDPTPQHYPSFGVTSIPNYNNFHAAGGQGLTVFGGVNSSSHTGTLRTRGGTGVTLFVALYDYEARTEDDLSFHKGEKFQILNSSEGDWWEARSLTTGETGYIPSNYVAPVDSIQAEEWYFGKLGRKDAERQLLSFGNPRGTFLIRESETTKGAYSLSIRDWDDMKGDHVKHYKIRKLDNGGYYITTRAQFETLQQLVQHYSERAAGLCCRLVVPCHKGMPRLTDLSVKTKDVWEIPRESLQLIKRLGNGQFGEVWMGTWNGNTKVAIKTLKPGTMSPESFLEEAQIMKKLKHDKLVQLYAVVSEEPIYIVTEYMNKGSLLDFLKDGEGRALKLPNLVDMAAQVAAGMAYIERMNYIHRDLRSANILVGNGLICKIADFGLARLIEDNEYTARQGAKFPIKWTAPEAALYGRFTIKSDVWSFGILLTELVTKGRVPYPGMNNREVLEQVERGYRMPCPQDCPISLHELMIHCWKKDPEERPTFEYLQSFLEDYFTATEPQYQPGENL
procedure.summary: phosphorylation enrichment, bacterial display (enrichment ratio); higher = better substrate or ligand; peptides without Tyr show the background
Entries annotated with measured phosphorylation enrichment
// response body must contain only the number

NKHTNYTMEHI [ACTN1_Y708] = 0.388
PARLEYYENEK [IRS1_Y46] = 0.732

Write phosphorylation enrichment of GDFLSYREFHS [ERBIN_Y1107_YF] ; system used: Fyn (UniProt P06241)
0.348

Write phosphorylation enrichment of TTSQLYDAVPI [PDPK1_Y9] ; system used: Fyn (UniProt P06241)
10.2

Write phosphorylation enrichment of INITIYGKTFR [EFHC1_Y177] ; system used: Fyn (UniProt P06241)
0.438

Write phosphorylation enrichment of SVVVPYEPPEI [TP53_Y220_V225I] ; system used: Fyn (UniProt P06241)
0.408

Write phosphorylation enrichment of GSSKIYFLHAD [TLR5_Y108_P112A] ; system used: Fyn (UniProt P06241)
0.951

###

Entries annotated with measured phosphorylation enrichment
system: Hck (UniProt P08631)
Sequence (P08631 whole entry, looked up): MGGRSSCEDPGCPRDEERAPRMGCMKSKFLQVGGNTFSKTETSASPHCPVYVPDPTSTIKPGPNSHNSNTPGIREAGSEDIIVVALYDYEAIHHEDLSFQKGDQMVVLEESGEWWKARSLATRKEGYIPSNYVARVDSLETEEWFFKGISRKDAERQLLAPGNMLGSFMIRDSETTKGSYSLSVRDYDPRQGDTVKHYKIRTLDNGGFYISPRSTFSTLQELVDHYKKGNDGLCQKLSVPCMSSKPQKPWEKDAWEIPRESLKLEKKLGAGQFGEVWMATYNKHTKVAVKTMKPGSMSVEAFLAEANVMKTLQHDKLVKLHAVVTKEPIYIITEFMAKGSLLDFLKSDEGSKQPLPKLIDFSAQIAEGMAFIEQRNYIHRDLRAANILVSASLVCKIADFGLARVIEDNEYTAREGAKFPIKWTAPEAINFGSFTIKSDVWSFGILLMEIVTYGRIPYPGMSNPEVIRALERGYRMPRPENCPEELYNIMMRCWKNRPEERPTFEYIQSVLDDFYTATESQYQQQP
procedure.summary: phosphorylation enrichment, bacterial display (enrichment ratio); higher = better substrate or ligand; peptides without Tyr show the background
// response body must contain only the number

Worked cases, answers included:
SRGRQYQELPR [KCNH2_Y1009] = 0.527
IAINKYGVSLI [MYO7A_Y2136] = 0.497
QNRELYSEGLG [CNKSR1_Y665] = 0.895
GHGEEYPAAGA [NOTCH3_Y2221] = 0.431
KMTGRYEMYAR [UPB1_Y362] = 0.549

Provide phosphorylation enrichment value for the following sequence: VAMDDYLKNVV [LRRK2_Y707_M712V]
0.477

Provide phosphorylation enrichment value for the following sequence: TLNHQYDFTFH [CSNK1A1_Y292_D297H_YF]
0.559

Provide phosphorylation enrichment value for the following sequence: LITTLYSGFLG [KCNQ1_Y267_I268S]
3.96

###

system: Grb2 SH2 (UniProt P62993)
Sequence (P62993 whole entry, looked up): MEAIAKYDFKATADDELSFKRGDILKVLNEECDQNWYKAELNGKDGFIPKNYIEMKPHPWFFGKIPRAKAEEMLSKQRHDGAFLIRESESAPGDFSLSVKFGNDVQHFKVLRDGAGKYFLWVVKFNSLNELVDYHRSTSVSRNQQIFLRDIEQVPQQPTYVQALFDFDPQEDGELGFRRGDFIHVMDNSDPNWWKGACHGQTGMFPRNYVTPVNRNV
procedure.summary: SH2 binding enrichment of the phosphorylated peptide, bacterial display (enrichment ratio); higher = better substrate or ligand; peptides without Tyr show the background
result.type: SH2 binding enrichment
// response body must contain only the number

Worked cases, answers included:
RRIHRYRGHLW [VHL_Y112_S111R] = 0.532
AQADIYKANFQ [IKBKG_Y308_D311N] = 0.873
MHDKEYFSVHN [MET_Y1234_Y1230H_YF] = 1.12
MYDKEYYSVHN [MET_Y1234] = 0.873
ARDVIYIIIPA [FRKtide_2014] = 1.82
KQLGEYKFQNA [ALB_Y425_E420K] = 0.897
RGRSTCFWPRP [GAGE12J_Y9_Y9C_YF] = 0.595
TRYDEYLEVTK [MAP1A_Y2217_H2214Y] = 0.777

Provide SH2 binding enrichment value for the following sequence: RSAGKYDVFLI [MECP2_Y120_YF]
1.03

Provide SH2 binding enrichment value for the following sequence: ISSLDYISKTK [VAV3_Y294]
0.762

Provide SH2 binding enrichment value for the following sequence: VTGWGYRKLRD [F11_Y521]
0.798

Provide SH2 binding enrichment value for the following sequence: LPEENYQVLCF [ARHGAP1_Y365_R369C]
0.739

Provide SH2 binding enrichment value for the following sequence: ETKAFYPEEIS [HSPA1A_Y115]
0.796

Provide SH2 binding enrichment value for the following sequence: FASVEYQEALS [GALNS_Y461_A459V]
0.917

Provide SH2 binding enrichment value for the following sequence: AAVDEYLEHRR [FAM221A_Y17_Y20H]
0.786

Provide SH2 binding enrichment value for the following sequence: MSLRSYGSWEG [APC_Y96_R99W]
0.45

Provide SH2 binding enrichment value for the following sequence: NYDLDYDSVQP [MYC_Y16]
0.804

Provide SH2 binding enrichment value for the following sequence: MEYAKYGSLRG [RET_Y809_V804M]
0.703

###

system: c-Src SH2
procedure.summary: SH2 binding enrichment of the phosphorylated peptide, bacterial display (enrichment ratio); higher = better substrate or ligand; peptides without Tyr show the background
result.type: SH2 binding enrichment
// response body must contain only the number

MIRSTYALGGL [CPS1_Y590_A589T] = 0.439
KASRKYFAMKI [AKT3_Y173_G171R_YF] = 0.472
EEGNPSYSSAR [MCCC2_Y520_Y520S] = 0.517
ERFAFYRDSPR [FOXE3_Y108] = 0.522

Provide SH2 binding enrichment value for the following sequence: HAVVDYMRRQK [ATM_Y1915_L1910H]
0.381

Provide SH2 binding enrichment value for the following sequence: KELAKYFKLHH [AK7_Y390_N389K_YF]
0.497

Provide SH2 binding enrichment value for the following sequence: CERLPYDANKW [FLT1_Y815_S818N]
0.492

Provide SH2 binding enrichment value for the following sequence: SFPSTYRYERG [INPPL1_Y661_P659S]
0.633

Provide SH2 binding enrichment value for the following sequence: VECRVYAEDPY [PCCA_Y401]
0.603

Provide SH2 binding enrichment value for the following sequence: DPLLTYRFPPK [LMNA_Y481]
0.542

Provide SH2 binding enrichment value for the following sequence: VGQRPYQPLPE [REEP3_Y170]
0.534

###

system: Hck (UniProt P08631)
procedure.summary: phosphorylation enrichment, bacterial display (enrichment ratio); higher = better substrate or ligand; peptides without Tyr show the background
Entries annotated with measured phosphorylation enrichment
// response body must contain only the number

Provide phosphorylation enrichment value for the following sequence: RHNEIYEIKVD [LGR5_Y387]
6.57

Provide phosphorylation enrichment value for the following sequence: HVEAVYIDIAD [PITPNA_Y140]
0.837

Provide phosphorylation enrichment value for the following sequence: RGFRVCFTPDS [PTPRF_Y450_Y450C_YF]
1.65

Provide phosphorylation enrichment value for the following sequence: SVVVPYEPPEI [TP53_Y220_V225I]
0.616

Provide phosphorylation enrichment value for the following sequence: AEDKPYAELWM [MPI_Y46]
1.44

Provide phosphorylation enrichment value for the following sequence: FPCSVYMPDEW [INSR_Y1011_V1012M]
0.596

Provide phosphorylation enrichment value for the following sequence: YSTSPYLLEAA [BRIP1_Y921]
1.08

Provide phosphorylation enrichment value for the following sequence: TTEHIYGDKFF [UBA7_Y524_N527K]
2.15

Provide phosphorylation enrichment value for the following sequence: ETKAFYPEEIS [HSPA1A_Y115]
0.506

Provide phosphorylation enrichment value for the following sequence: MMVGAYSSLEG [ECPAS_Y470_T472S]
0.832

Provide phosphorylation enrichment value for the following sequence: RGFRVYFTPDS [PTPRF_Y450_YF]
0.542

Provide phosphorylation enrichment value for the following sequence: QAINEYEKWLE [MAP9_Y603]
1.2

Provide phosphorylation enrichment value for the following sequence: AAVDEYLEHRR [FAM221A_Y17_Y20H]
0.452
